test system: RARa homodimer (NR concentration 270 nM); assay: PBM binding z-score (relative to random genomic background probes); higher = stronger binding; sequences stand for … in GC…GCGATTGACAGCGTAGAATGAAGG
The threshold is inclusive: PBM binding z-score of exactly 0.3 counts as Satisfied; values below receive Not satisfied.

ATCTCTAGGTAACCAAGTTCGGTGAATGCCGAAC Not satisfied

Query :: Item TAGACTAGGTCATGGGCCAGTATACCACGCGAAC with PBM binding z-score of 0.3 or above?
Result :: Satisfied

Query :: Item ACTAGTTGGTCAGCTGAGTTCACACACAATTCGG with PBM binding z-score of 0.3 or above?
Result :: Not satisfied

Query :: Item ATATGTAGGTTATCGGGTCATTCTGTTTGCGCAT with PBM binding z-score of 0.3 or above?
Result :: Satisfied

---

Measured PBM binding z-score values are reported for all entries that follow.
tested on: PPARg homodimer (NR concentration 180 nM); assay: PBM binding z-score (relative to random genomic background probes); higher = stronger binding; sequences stand for … in GC…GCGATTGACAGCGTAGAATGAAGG
// response body must contain only the number

These solved cases illustrate the format of a correct answer.
TTACCAAGGTGAAGCTCGTTGATCCCTCTGTAGA -0.515
CAAACTAGGTCAAGGTCCAAGTCGGTTTGTGCCA 2.64
CAAATTAGGTCACCGGAAGGTCAAAGTCCGCATG 7.17
CTCGAAAGGTCGTGCTAAGGTGAGTATACCAAAC 2.51
TCTTGTAGATCAATAAAGGTTAAGAAAGTGCGCT 1.33

For CGAACTATGTCATCCAGGACAGTGAATACATTGA the sequence record lists PBM binding z-score as 0.502

For GCGACTAGGGCAAAGCAGGTTACCATAAGGTTGG the sequence record lists PBM binding z-score as 0.0824

For AGAATGAGGTTATACGTAGATCAGAGAAGAAAGT the sequence record lists PBM binding z-score as 1.35

For TCATATAGGGAAAAGGTGAAAGTCGGTGTGGTAA the sequence record lists PBM binding z-score as 1.68

For TCGAGTTGGTTAGGGGCATTCAGAATGGCGTCGA the sequence record lists PBM binding z-score as 0.182

For GCGTCTGGGGCATCAGCAGGTTACCATAACTTAA the sequence record lists PBM binding z-score as 0.169

For CCTAGTAGTTGACCATAAGGGCAACCGAAGCTCG the sequence record lists PBM binding z-score as 1.26

---

tested on: RARa homodimer (NR concentration 270 nM); assay: PBM binding z-score (relative to random genomic background probes); higher = stronger binding; sequences stand for … in GC…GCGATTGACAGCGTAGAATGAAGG
The threshold is inclusive: PBM binding z-score of exactly 0.4 counts as label 1; values below receive label 0.

Some solved entries appear below for comparison.
ATATGTAGTTTAGCTGGGGTCATTCAGACTAGGC label 1
GTACCAAGGTGATTAGGTCGTTGATGAGTAGGCG label 0

Query :: Item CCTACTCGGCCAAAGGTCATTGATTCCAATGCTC with PBM binding z-score of 0.4 or above?
Result :: label 1

Query :: Item CGAACTAGGTCAGAAAAGGACAGTGAAGGATGAT with PBM binding z-score of 0.4 or above?
Result :: label 0

Query :: Item AGTCAAAGTTCAGGACGAGGTAACGTATAGCACG with PBM binding z-score of 0.4 or above?
Result :: label 1

From: the supplement of paper PMC6555819
